Biological target: T1, DcR3 (UniProt O95407 30-300, limits assumed)
T1 construct: the construct is not described; also called decoy receptor DcR3; TNFRSF6B
T1 sequence (looked up): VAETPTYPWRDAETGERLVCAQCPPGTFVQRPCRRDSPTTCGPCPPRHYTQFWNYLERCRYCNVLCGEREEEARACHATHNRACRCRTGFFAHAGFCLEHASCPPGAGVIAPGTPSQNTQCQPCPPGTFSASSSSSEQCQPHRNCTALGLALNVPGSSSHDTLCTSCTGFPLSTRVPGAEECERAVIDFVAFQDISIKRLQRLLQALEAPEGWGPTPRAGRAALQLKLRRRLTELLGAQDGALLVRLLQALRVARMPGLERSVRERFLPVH
Test: ELISA, DcR3
Let's look at some binders and their measured pEC50.
// pEC50 is dimensionless: -log10 of concentration (M)

- TL1W78 (His-TEV-TL1A R103H) (ligand, also called TL1W78 (R103H)) HHHHHHENLYFQGLKGQEFAPSHQQVYAPLRADGDKPRAHLTVVHQTPTQHFKNQFPALHWEHELGLAFTKNRMNYTNKFLLIPESGDYFIYSQVTFRGMTSECSEIRQAGRPNKPDSITVVITKVTDSYPEPTQLLMGTKSVCEVGSNWFQPIYLGAMFSLQEGDKLMVNVSDISLVDYTKEDKTFFGAFLL: 8.09

Switching to the query record.
Query: # lookup: pEC50 of TL1W103 (His-TEV-TL1A T185A) (ligand, also called TL1W103 (T185A)) HHHHHHENLYFQGLKGQEFAPSHQQVYAPLRADGDKPRAHLTVVRQTPTQHFKNQFPALHWEHELGLAFTKNRMNYTNKFLLIPESGDYFIYSQVTFRGMTSECSEIRQAGRPNKPDSITVVITKVADSYPEPTQLLMGTKSVCEVGSNWFQPIYLGAMFSLQEGDKLMVNVSDISLVDYTKEDKTFFGAFLL
Reply: 7.94
